Mean relative activity reference
Tested on: K562 CRISPRi cells
assayRemarks: Constant region variant library pooled growth screen, K562
Assay type: cell-based, human
protocolConditions: sgRNA constant region variants; activity relative to the original, un-modified constant region cr995
Description: We calculated relative activities for each targeting sequence:constant region pair by normalizing its phenotype to that of the targeting sequence paired with the unmodified constant region, identifying 409 constant region variants that on average conferred intermediate activity (0.1-0.9, FIG. 5B). Ten variants selected for individual evaluation also mediated intermediate levels of mRNA knockdown (FIG. 6B). […]

| molecule | Mean relative activity |
| --- | --- |
| cr045 (nucleic acid, listed as DNA, chemistry not fully specified) guide: TTTTATGAGCTAAGCTGGAAACAGCATAGCAAGTTTAAATAAGGCTAGTCCGTTATCAACTTGAAAAAGTGGCACCGAGTCGGTGCT | 0.04839 |
| cr810 (nucleic acid, listed as DNA, chemistry not fully specified) guide: GTTTAAGAGCTAAGCTGGAAACAGCATAGCAAGGTTAAATAAGGCTAGTCCGTTATCAACTTGAAAAAGTGGCACCCAGTGGGTGCT | 0.002026 |
| cr391 (nucleic acid, listed as DNA, chemistry not fully specified) guide: GTTTAAGAGCTAAGCTGGAAACAGCATAGCAAGTTTAAATAAGCCTAGTGCGTTATCAACTTGAAAAAGTGGCAACGAGTCGTTGCT | 0.8216 |
| cr341 (nucleic acid, listed as DNA, chemistry not fully specified) guide: GTTTAAGAGCTAAGCTGGAAACAGCATAGCAAGTTTAAATAAGTCTAGTACGTTATCAACTTGAAAAAGTGCTACCGAGTCGGTAGT | 0.7299 |

Origin of the recorded values: patent US20220259593A1
